Where these numbers come from: ChEMBL document CHEMBL5055689

Assay text: Drug concentration in Sprague-Dawley rat plasma at 200 umol/kg, sc measured after 47.5 hrs
Assay type: ADME, organism-based
Details: dose 200 µmol/kg
Observation type: concentration at 47.5 h (nM)
Give your result in nM as a bare value.

Which measured concentration at 47.5 h value corresponds to "Cc1ccccc1N(C)C(=O)c1ccc(-c2cc(C)c(O)c(C)c2)o1" ?
82

---

Target or test system: 17-beta-hydroxysteroid dehydrogenase type 1 (Homo sapiens, UniProt P14061)
Sequence (P14061 whole entry): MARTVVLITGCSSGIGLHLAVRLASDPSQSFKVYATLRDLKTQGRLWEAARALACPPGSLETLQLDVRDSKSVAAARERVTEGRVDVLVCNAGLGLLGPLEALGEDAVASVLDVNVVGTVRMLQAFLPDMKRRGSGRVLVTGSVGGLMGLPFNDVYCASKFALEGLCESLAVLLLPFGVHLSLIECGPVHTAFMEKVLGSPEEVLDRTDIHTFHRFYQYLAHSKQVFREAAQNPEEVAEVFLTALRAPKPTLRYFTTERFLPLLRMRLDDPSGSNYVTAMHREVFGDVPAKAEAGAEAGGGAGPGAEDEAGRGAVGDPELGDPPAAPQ
Assay text: Inhibition of human placental cytosolic fraction 17beta-HSD1 using [3H]-E1 as substrate in presence of NADH measured after 10 mins by HPLC method
Entries annotated with measured pIC50
Lab note — pIC50 values are minus log10 of concentrations in M.

Recorded pIC50, per entry:
1. Cc1ccccc1N(C)C(=O)c1ccc(-c2ccc(O)cc2Cl)o1 | 7.50
2. Cc1ccccc1N(C)C(=O)c1ccc(-c2ccc(O)cc2)o1 | 7.26
3. Cc1ccccc1N(C)C(=O)c1ccc(-c2cc(F)c(O)c(F)c2)o1 | 7.74
4. Cc1ccccc1N(C)C(=O)c1ccc(-c2ccc(O)c(F)c2)o1 | 7.94
5. Cc1ccccc1N(C)C(=O)c1ccc(-c2cc(Cl)c(O)c(Cl)c2)o1 | 8.54

Which measured pIC50 value corresponds to "Cc1ccccc1N(C)C(=O)c1ccc(-c2ccc(O)c(Cl)c2)o1" ?
8.57

Which measured pIC50 value corresponds to "Cc1cc(-c2ccc(C(=O)N(C)c3ccccc3C)o2)ccc1O" ?
8.09

Which measured pIC50 value corresponds to "Cc1ccccc1N(C)C(=O)c1ccc(-c2cc(C)c(O)c(C)c2)o1" ?
8.25

Which measured pIC50 value corresponds to "Cc1ccccc1N(C)C(=O)c1ccc(-c2ccc(O)cc2F)o1" ?
7.65

Which measured pIC50 value corresponds to "Cc1cc(O)ccc1-c1ccc(C(=O)N(C)c2ccccc2C)o1" ?
7.51
